Target: Cell division inhibitor SulA (Escherichia coli K-12)
Test: Inhibition of Escherichia coli K-12 DNA sulA expressed in Escherichia coli DC2 assessed as compound concentration required for => 4-fold induction of luxCDABE operon by reported gene assay
The source made the active and inactive calls. The calls are words filed in the database; no cut-off is given here.
experimental.endpoint: Activity

Example entries and their recorded answers appear below.
COc1cc(C(=O)Nc2c(O)c3ccc(O[C@@H]4OC(C)(C)[C@H](OC)[C@@H](OC(=O)c5ccc(C)[nH]5)[C@H]4O)c(C)c3oc2=O)ccc1O: 12.5 µM
CCCc1cc(C(=O)Nc2c(O)c3ccc(O[C@@H]4OC(C)(C)[C@H](OC)[C@@H](O)[C@H]4O)c(C)c3oc2=O)ccc1O: inactive
CO[C@@H]1[C@@H](OC(N)=O)[C@@H](O)[C@H](Oc2ccc3c(O)c(NC(=O)c4ccc(O)c(CC=C(C)C)c4)c(=O)oc3c2C)OC1(C)C: 6.3 µM
CO[C@@H]1[C@@H](OC(=O)c2ccc(C)[nH]2)[C@@H](O)[C@H](Oc2ccc3c(O)c(NC(=O)c4ccc(O)c(NC(=O)C(C)C)c4)c(=O)oc3c2Cl)OC1(C)C: 3.1 µM
CO[C@@H]1[C@@H](O)[C@@H](OC(=O)c2ccc(C)[nH]2)[C@H](Oc2ccc3c(O)c(NC(=O)c4ccccc4)c(=O)oc3c2Cl)OC1(C)C: 50 µM
CO[C@@H]1[C@@H](OC(=O)c2ccc(C)[nH]2)[C@@H](O)[C@H](Oc2ccc3c(O)c(NC(=O)c4ccccc4)c(=O)oc3c2C)OC1(C)C: 6.3 µM
CO[C@@H]1[C@@H](OC(=O)c2ccc(C)[nH]2)[C@@H](O)[C@H](Oc2ccc3c(O)c(NC(=O)c4cc(C)c(O)c(C)c4)c(=O)oc3c2)OC1(C)C: inactive
CO[C@@H]1[C@@H](OC(=O)c2ccc(C)[nH]2)[C@@H](O)[C@H](Oc2ccc3c(O)c(NC(=O)/C=C/c4ccc(O)c(Cl)c4)c(=O)oc3c2)OC1(C)C: 50 µM

Respectfully, I request Activity for each entry included below.
1. CCCc1cc(C(=O)Nc2c(O)c3ccc(O[C@@H]4OC(C)(C)[C@H](OC)[C@@H](O)[C@H]4OC(=O)c4ccc(C)[nH]4)c(C)c3oc2=O)ccc1O
2. CO[C@@H]1[C@@H](O)[C@@H](OC(=O)c2ccc(C)[nH]2)[C@H](Oc2ccc3c(O)c(NC(=O)/C=C/c4ccccc4)c(=O)oc3c2Cl)OC1(C)C
3. CO[C@@H]1[C@@H](OC(=O)c2ccc(C)[nH]2)[C@@H](O)[C@H](Oc2ccc3c(O)c(NC(=O)c4ccccc4)c(=O)oc3c2Cl)OC1(C)C
4. CO[C@@H]1[C@@H](O)[C@@H](O)[C@H](Oc2ccc3c(O)c(NC(=O)/C=C/c4ccccc4)c(=O)oc3c2C)OC1(C)C
5. COc1cc(C(=O)Nc2c(O)c3ccc(O[C@@H]4OC(C)(C)[C@H](OC)[C@@H](OC(=O)c5ccc(C)[nH]5)[C@H]4O)c(Cl)c3oc2=O)ccc1O
6. COc1cc(/C=C/C(=O)Nc2c(O)c3ccc(O[C@@H]4OC(C)(C)[C@H](OC)[C@@H](OC(=O)c5ccc(C)[nH]5)[C@H]4O)c(Cl)c3oc2=O)ccc1O

Result block:
1. 100 µM
2. inactive
3. 3.1 µM
4. inactive
5. 6.3 µM
6. 3.1 µM

Respectfully, I request Activity for each entry included below.
1. CO[C@@H]1[C@@H](OC(=O)c2ccc(C)[nH]2)[C@@H](O)[C@H](Oc2ccc3c(O)c(NC(=O)/C=C/c4ccc(O)c(Cl)c4)c(=O)oc3c2Cl)OC1(C)C
2. CO[C@@H]1[C@@H](OC(=O)c2ccc(C)[nH]2)[C@@H](O)[C@H](Oc2ccc3c(O)c(NC(=O)c4ccc(SC)cc4)c(=O)oc3c2Cl)OC1(C)C
3. C=CCc1cc(C(=O)Nc2c(O)c3ccc(O[C@@H]4OC(C)(C)[C@H](OC)[C@@H](O)[C@H]4OC(=O)c4ccc(C)[nH]4)c(C)c3oc2=O)ccc1O
4. CO[C@@H]1[C@@H](O)[C@@H](OC(=O)c2ccc(C)[nH]2)[C@H](Oc2ccc3c(O)c(NC(=O)c4ccc(SC)cc4)c(=O)oc3c2Cl)OC1(C)C

Result block:
25 µM
12.5 µM
100 µM
12.5 µM
